Target: Phospholipid hydroperoxide glutathione peroxidase GPX4 (Homo sapiens)
Sequence (whole entry): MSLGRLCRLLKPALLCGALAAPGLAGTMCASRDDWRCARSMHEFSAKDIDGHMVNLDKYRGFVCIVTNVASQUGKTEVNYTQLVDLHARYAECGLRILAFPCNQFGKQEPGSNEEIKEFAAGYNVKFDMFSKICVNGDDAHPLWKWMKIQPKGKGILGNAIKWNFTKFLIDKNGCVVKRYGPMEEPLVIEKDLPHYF
Assay: Induction of GPX4 degradation in human HT-1080 cells at 10 uM incubated for 24 hrs relative to control
Type: cell-based
measure: Activity

{"columns": ["smiles", "measured on", "Activity"],
 "data": [
  ["COC(=O)[C@H]1Cc2c([nH]c3ccccc23)[C@H](c2ccc(C(=O)NCc3cn(CCOCCOCCOCCOCCOCCN[C@H](C(=O)N4C[C@H](O)C[C@H]4C(=O)N[C@@H](C)c4ccc(-c5scnc5C)cc4)C(C)(C)C)nn3)cc2)N1C(=O)CCl", "Phospholipid hydroperoxide glutathione peroxidase GPX4 (Homo sapiens)", "11%"]
]}

Let's switch to this compound now.
`COC(=O)[C@H]1Cc2c([nH]c3ccccc23)[C@H](c2ccc(C(=O)NCc3cn(CCOCCOCCOCCOCCN[C@H](C(=O)N4C[C@H](O)C[C@H]4C(=O)N[C@@H](C)c4ccc(-c5scnc5C)cc4)C(C)(C)C)nn3)cc2)N1C(=O)CCl` tested on Phospholipid hydroperoxide glutathione peroxidase GPX4 (Homo sapiens) gave Activity: 12%

###

Target: Phospholipid hydroperoxide glutathione peroxidase GPX4 (Homo sapiens) (UniProt P36969)
Assay: Induction of GPX4 degradation in human HT-1080 cells at 10 uM incubated for 24 hrs relative to control
Assay type: cell-based
Active and inactive are the calls of the source. No cut-off for these calls is given here.

{"columns": ["molecule", "Activity"],
 "data": [
  ["COC(=O)[C@H]1Cc2c([nH]c3ccccc23)[C@H](c2ccc(C(=O)NCc3cn(CCOCCOCCOCCNc4cccc5c4CN(C4CCC(=O)NC4=O)C5=O)nn3)cc2)N1C(=O)CCl (some centres undefined)", "inactive"],
  ["COC(=O)[C@H]1Cc2c([nH]c3ccccc23)[C@H](c2ccc(C(=O)NCc3cn(CCOCCOCCNc4cccc5c4CN(C4CCC(=O)NC4=O)C5=O)nn3)cc2)N1C(=O)CCl (some centres undefined)", "inactive"],
  ["COC(=O)[C@H]1Cc2c([nH]c3ccccc23)[C@H](c2ccc(C(=O)NCc3cn(CCOCCOCCOCCOCCNc4cccc5c4CN(C4CCC(=O)NC4=O)C5=O)nn3)cc2)N1C(=O)CCl (some centres undefined)", "inactive"],
  ["COC(=O)[C@H]1Cc2c([nH]c3ccccc23)[C@H](c2ccc(C(=O)NCc3cn(CCOCCOCCOCCOCCNc4cccc5c4C(=O)N(C4CCC(=O)NC4=O)C5=O)nn3)cc2)N1C(=O)CCl (some centres undefined)", "35%"]
]}

###

Target: UniProtKB P36969
Assay: Induction of GPX4 degradation in human HT-1080 cells at 0.1 uM incubated for 6 hrs relative to control
Assay type: cell-based
A collection of compounds and their measured Activity
Give just the numeric value; % need not be written.

{"columns": ["compound", "measured on", "measure", "measurement units", "experimental result"],
 "data": [
  ["COC(=O)[C@H]1Cc2c([nH]c3ccccc23)[C@H](c2ccc(C(=O)N3CCN(CCCCCCCCCCCCCNc4cccc5c4CN(C4CCC(=O)NC4=O)C5=O)CC3)cc2)N1C(=O)CCl (stereo not given in full)", "UniProtKB P36969", "Activity", "%", 69],
  ["COC(=O)[C@H]1Cc2c([nH]c3ccccc23)[C@H](c2ccc(C(=O)N3CCN(CCCCCCCCCCCCCCNc4cccc5c4CN(C4CCC(=O)NC4=O)C5=O)CC3)cc2)N1C(=O)CCl (stereo not given in full)", "UniProtKB P36969", "Activity", "%", 58],
  ["COC(=O)[C@H]1Cc2c([nH]c3ccccc23)[C@H](c2ccc(C(=O)N3CCN(CCCCCCCCCCCNc4cccc5c4CN(C4CCC(=O)NC4=O)C5=O)CC3)cc2)N1C(=O)CCl (stereo not given in full)", "UniProtKB P36969", "Activity", "%", 64],
  ["COC(=O)[C@H]1Cc2c([nH]c3ccccc23)[C@H](c2ccc(C(=O)N3CCN(CCCCCCCCCCCCCCNc4cccc5c4C(=O)N(C4CCC(=O)NC4=O)C5=O)CC3)cc2)N1C(=O)CCl (stereo not given in full)", "UniProtKB P36969", "Activity", "%", 44]
]}

Just so you know, measured Activity for COC(=O)[C@H]1Cc2c([nH]c3ccccc23)[C@H](c2ccc(C(=O)N3CCN(CCCCCCCNc4cccc5c4CN(C4CCC(=O)NC4=O)C5=O)CC3)cc2)N1C(=O)CCl (stereo not given in full) came out at 10
